Test system: Yap1 mRNA
assay.summary: Antisense inhibition of human Yap1 in A-431 cells by cEt gapmers, single dose (Example 3, RTS36584)
Assay type: cell-based
run.conditions: Table 34; Yap1 mRNA as percent of untreated control; 3-10-3 cEt gapmers targeting SEQ ID NO: 1 and 2; single dose
Strand notation (5' to 3'): a small letter for the sugar, then the base; units joined by * are phosphorothioate-linked, units joined directly phosphodiester-linked; [ ] holds rarer units or linkages, { } end groups; capitals alone tell only the bases. k = constrained ethyl (cEt); [5mC] = 5-methylcytosine; d = 2'-deoxy (DNA)
Quick reference: YAP1 (% UTC) of the listed items.
Answer with a number only, understood to be in % UTC.

1075412 (antisense kT*k[5mC]*k[5mC]*dA*dA*dA*dA*dA*dG*dG*dG*dT*dA*kA*kG*kG) [compound 1075412]
48

// next item, YAP1 (% UTC) requested
Name the recorded YAP1 (% UTC) for 1075956 (kT*kA*kT*dA*dA*dA*dG*d[5mC]*dA*dA*dT*dG*d[5mC]*kG*kA*kT; antisense) [compound 1075956] . 27

Source: patent US11214803B2
